# Target Of Assay: MPK4/12, HT1 and CBC1 recombinant proteins (Arabidopsis thaliana, UniProt Q2MHE4+Q39024)
# Construct: His; made in house
# Sequence (Q39024 whole entry): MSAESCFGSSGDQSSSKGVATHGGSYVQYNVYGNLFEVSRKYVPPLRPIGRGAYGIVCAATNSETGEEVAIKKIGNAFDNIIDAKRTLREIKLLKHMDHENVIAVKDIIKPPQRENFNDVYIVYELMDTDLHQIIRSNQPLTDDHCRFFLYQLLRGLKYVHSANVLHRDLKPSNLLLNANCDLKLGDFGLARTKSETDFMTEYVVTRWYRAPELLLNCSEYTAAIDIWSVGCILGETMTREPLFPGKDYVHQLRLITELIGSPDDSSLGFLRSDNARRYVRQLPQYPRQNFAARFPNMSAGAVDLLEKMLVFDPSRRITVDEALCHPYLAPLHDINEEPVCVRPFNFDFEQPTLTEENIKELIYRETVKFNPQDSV
# Sequence (Q2MHE4 whole entry): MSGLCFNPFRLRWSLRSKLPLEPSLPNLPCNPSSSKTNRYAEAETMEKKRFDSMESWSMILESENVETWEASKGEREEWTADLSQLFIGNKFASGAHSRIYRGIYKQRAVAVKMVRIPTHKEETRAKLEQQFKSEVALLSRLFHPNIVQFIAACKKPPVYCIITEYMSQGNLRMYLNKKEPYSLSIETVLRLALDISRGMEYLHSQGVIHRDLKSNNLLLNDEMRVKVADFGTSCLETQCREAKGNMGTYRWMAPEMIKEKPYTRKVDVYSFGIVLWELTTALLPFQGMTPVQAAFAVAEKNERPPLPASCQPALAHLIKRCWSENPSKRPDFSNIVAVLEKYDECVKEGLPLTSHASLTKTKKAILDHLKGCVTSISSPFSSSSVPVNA
# Assay Procedure: in vitro phosphorylation assay: NaHCO3-dependent down-regulation of HT1-mediated CBC1 phosphorylation
# Assay type: biochemical
pEC50: −log10 of the molar value.
Value Type: pEC50

Entry `O=C(O)O` — recorded pEC50 = ~2.15
